Sourced from ChEMBL document CHEMBL1811872

# system_name: UniProt P41595
# Sequence (P41595 whole entry): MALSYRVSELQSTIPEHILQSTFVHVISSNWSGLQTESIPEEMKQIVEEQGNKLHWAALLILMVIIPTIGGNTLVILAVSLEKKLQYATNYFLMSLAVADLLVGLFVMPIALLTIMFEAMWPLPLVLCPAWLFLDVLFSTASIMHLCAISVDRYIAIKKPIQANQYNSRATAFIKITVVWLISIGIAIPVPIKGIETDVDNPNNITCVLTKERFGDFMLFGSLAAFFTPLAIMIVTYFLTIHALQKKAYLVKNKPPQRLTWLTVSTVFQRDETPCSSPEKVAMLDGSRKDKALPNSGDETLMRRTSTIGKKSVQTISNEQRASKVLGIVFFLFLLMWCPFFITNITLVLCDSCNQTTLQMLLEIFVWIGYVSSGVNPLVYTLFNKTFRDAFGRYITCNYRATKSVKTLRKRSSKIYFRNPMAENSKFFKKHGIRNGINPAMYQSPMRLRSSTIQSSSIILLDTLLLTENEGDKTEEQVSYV
value_type: pKi
Give only the number. pKi is defined as minus log10 of concentration in molar units.

stdin: For UniProt P41595, give the measured pKi of the entry COc1cc(CC(C)N)c(OC)cc1I (racemic)
stdout: 8.70

###

Recorded IC50 values for a group of molecules are listed next.
# system_name: Tryptophan 2,3-dioxygenase (Mus musculus)
# assay_name: Inhibition of mouse TDO expressed in mouse P815B cells assessed as inhibition of tryptophan catabolism by measuring kynurenine production after 8 hrs by HPLC analysis

Known IC50 results, listed for orientation:
sample_smiles | recorded_result
N#CCCc1c[nH]c2ccccc12 | > 80 µM
O=[N+]([O-])c1cccc(/C=C/c2c[nH]c3cc(F)ccc23)c1 | 3 µM
C(=C\c1c[nH]c2c1ccc1ccccc12)/c1cccnc1 | > 200 µM
C(=C\c1c(-c2ccccc2)[nH]c2ccccc12)/c1cccnc1 | > 200 µM

Proceed to the following item.
stdin: Tell us which IC50 value is on record for "c1cncc(CCCc2c[nH]c3ccccc23)c1"
stdout: > 200 µM

###

# system_name: Tryptophan 2,3-dioxygenase (Homo sapiens, UniProt P48775)
# Sequence (P48775 whole entry): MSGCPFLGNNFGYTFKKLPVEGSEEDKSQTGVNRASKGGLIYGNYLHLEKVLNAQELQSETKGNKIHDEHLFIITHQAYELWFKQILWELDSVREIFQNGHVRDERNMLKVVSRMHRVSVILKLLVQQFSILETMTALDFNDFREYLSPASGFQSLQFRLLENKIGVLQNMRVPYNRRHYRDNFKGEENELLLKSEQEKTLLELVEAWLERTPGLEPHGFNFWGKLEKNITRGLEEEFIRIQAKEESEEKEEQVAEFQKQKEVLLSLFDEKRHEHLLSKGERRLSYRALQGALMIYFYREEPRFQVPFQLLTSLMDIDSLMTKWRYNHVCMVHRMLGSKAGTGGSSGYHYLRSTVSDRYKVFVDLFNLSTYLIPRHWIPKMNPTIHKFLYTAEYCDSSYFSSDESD
# assay_name: Competitive inhibition of human recombinant TDO expressed in Escherichia coli BL21 using L-tryptophan as substrate by measuring conversion of N-formylkynurenine into kynurenine after 30 mins by Michaelis-Menten steady state analysis
value_type: Ki (µM)
Express your answer in µM, writing the number without its unit.

stdin: Give Ki for "O=C(O)/C=C/c1c[nH]c2cc(F)ccc12"
stdout: 32.4

###

# system_name: Tryptophan 2,3-dioxygenase (Mus musculus, UniProt P48776)
# Sequence (P48776 whole entry): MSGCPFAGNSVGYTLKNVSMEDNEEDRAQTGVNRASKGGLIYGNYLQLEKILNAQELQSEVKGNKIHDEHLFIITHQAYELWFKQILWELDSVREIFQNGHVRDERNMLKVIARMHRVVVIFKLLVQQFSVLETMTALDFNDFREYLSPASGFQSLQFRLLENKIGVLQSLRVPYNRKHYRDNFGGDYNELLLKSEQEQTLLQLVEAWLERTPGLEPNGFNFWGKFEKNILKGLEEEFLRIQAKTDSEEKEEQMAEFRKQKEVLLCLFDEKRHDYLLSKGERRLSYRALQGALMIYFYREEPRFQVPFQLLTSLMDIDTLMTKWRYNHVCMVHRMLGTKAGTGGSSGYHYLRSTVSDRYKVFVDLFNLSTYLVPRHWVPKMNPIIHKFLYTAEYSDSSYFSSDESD
# assay_name: Inhibition of mouse TDO expressed in mouse P815B cells assessed as inhibition of tryptophan catabolism by measuring kynurenine production after 8 hrs by HPLC analysis
pIC50: −log10 of the molar value.
value_type: pIC50

Use the examples below as a reference point.
sample_smiles | recorded_result
N#Cc1cccc2[nH]cc(/C=C/c3cccnc3)c12 | < 3.70
Clc1cccc2c(/C=C/c3cccnc3)c[nH]c12 | < 3.70
O=C(O)/C=C/c1c[nH]c2ccccc12 | 4.74
C(=C\c1n[nH]c2ccccc12)/c1cccnc1 | < 3.70
c1ccc2c(Cc3nnn[nH]3)c[nH]c2c1 | < 4.10
Fc1ccc2c(/C=C/c3ccc4ccccc4c3)c[nH]c2c1 | < 3.70
Clc1cccc2[nH]cc(/C=C/c3cccnc3)c12 | < 4.40
Cc1ccc2c(/C=C/c3cccnc3)c[nH]c2c1 | < 3.70

stdin: Fill in pIC50 for record "C(=C\c1c[nH]c2ccccc12)/c1ccncc1"
stdout: 4.70

stdin: Return the recorded pIC50 value; entry: "C(=C\c1c[nH]c2ccncc12)/c1cccnc1"
stdout: < 3.70

stdin: Indicate the recorded pIC50 value for this compound: "COc1cccc2c(/C=C/c3cccnc3)c[nH]c12"
stdout: < 3.70

stdin: Return pIC50 for the following compound: "C(=C\c1c[nH]c2ccccc12)/c1ccccn1"
stdout: 4.70

stdin: Note down pIC50 recorded for "Clc1ccc2[nH]cc(/C=C/c3cccnc3)c2c1"
stdout: 4.70

stdin: Indicate the recorded pIC50 value for this compound: "N#CSCCc1c[nH]c2ccccc12"
stdout: 4.36

stdin: Quick one: give measured pIC50 for "Fc1cccc(/C=C/c2c[nH]c3cc(F)ccc23)c1"
stdout: 5.00

stdin: Return the recorded pIC50 value; entry: "C(=C\c1ccc2ccccc2c1)/c1cccnc1"
stdout: < 3.70

stdin: Fill in pIC50 for record "Fc1ccc2c(/C=C/c3nnn[nH]3)c[nH]c2c1"
stdout: 5.70

stdin: Tell me pIC50 reported for "C(=C\c1c[nH]cn1)/c1cccnc1"
stdout: < 3.70

stdin: Answer with the recorded pIC50 of "c1ccc2c(CCc3nnn[nH]3)c[nH]c2c1" only.
stdout: < 4.10

stdin: Entry "O=[N+]([O-])c1cccc2[nH]cc(/C=C/c3cccnc3)c12" needs its pIC50 filled in; supply it.
stdout: < 3.70

stdin: Please give measured pIC50 of the following entry: "N#CCc1c[nH]c2ccccc12"
stdout: < 4.10

stdin: Fill in reported pIC50 for this entry: "COc1cccc(/C=C/c2c[nH]c3cc(F)ccc23)c1"
stdout: 5.00

stdin: Please give the documented pIC50 of "Oc1ccc2c(/C=C/c3cccnc3)c[nH]c2c1"
stdout: < 3.70

stdin: Return pIC50 for the following compound: "Brc1cccc2[nH]cc(/C=C/c3cccnc3)c12"
stdout: < 3.70

stdin: Identify measured pIC50 corresponding to "Cn1cc(/C=C/c2cccnc2)c2ccc(F)cc21"
stdout: < 3.70

stdin: Look up and report measured pIC50 for this entry: "O=[N+]([O-])c1ccc2[nH]cc(/C=C/c3cccnc3)c2c1"
stdout: < 3.70

stdin: Supply recorded pIC50 for "Brc1ccc2[nH]cc(/C=C/c3cccnc3)c2c1" here.
stdout: 4.40
